test system: Trichophyton mentagrophytes; assay: Antifungal activity against Trichophyton mentagrophytes ATCC 9129 at pH 5.6 after 5 days in presence of 10% beef serum; type: functional; details: Trichophyton mentagrophytes, ATCC 9129, 120 h; read-out: MIC

molecule: COC(=O)[C@@H](F)[C@@H](Br)C(=O)OC (relative stereo)
MIC (mg/L): 2

molecule: CCCOC(=O)[C@@H](F)[C@@H](Br)C(=O)OCCC (relative stereo)
MIC (mg/L): 5

molecule: CCOC(=O)[C@H](F)[C@@H](Br)C(=O)OCC (relative stereo)
MIC (mg/L): 2

###

system: Trichophyton mentagrophytes; assay: Antifungal activity against Trichophyton mentagrophytes ATCC 9129 at pH 7 after 5 days in presence of 10% beef serum; assay type: functional; conditions: Trichophyton mentagrophytes, ATCC 9129, 120 h; read-out: MIC
Structures can show the parent of a compound that is named as a salt.
Recorded log10(MIC), one value per entry.
measure: log10(MIC) (log10 of the value in µg/mL)

molecule: CCCOC(=O)[C@H](F)[C@@H](Br)C(=O)OCCC (relative stereo)
result-value: 1.20

molecule: COC(=O)/C=C/C(=O)OC [DIMETHYL FUMARATE]
result-value: 1.48

molecule: CC1/C=C/C=C/C=C/C=C/C=C/C=C/C=C/C(OC2O[C@H](C)[C@@H](O)[C@H](N)[C@@H]2O)CC(O)C(C(=O)O)C(O)CC(=O)CC(O)CC(O)CC(O)CC(=O)CCCC(=O)CC(=O)OC1C(C)CC(C)C(O)CC(=O)c1ccc(N)cc1 (stereo partly specified)
result-value: 0.95

molecule: CCCOC(=O)/C=C\C(=O)OCCC
result-value: 1.78

molecule: COC(=O)[C@@H](F)[C@@H](Br)C(=O)OC (relative stereo)
result-value: 0.70

molecule: CCOC(=O)[C@H](F)[C@@H](Br)C(=O)OCC (relative stereo)
result-value: 0.70

molecule: COC(=O)/C=C(\F)C(=O)OC
result-value: 1.60

molecule: COC(=O)/C=C\C(=O)OC [DIMETHYL MALEATE]
result-value: 1.78

molecule: CCOC(=O)[C@@H](F)[C@@H](Br)C(=O)OCC (relative stereo)
result-value: 0.78

molecule: COC(=O)/C=C(\Br)C(=O)OC
result-value: 0.95

molecule: CCCCOC(=O)[C@H](F)[C@@H](Br)C(=O)OCCCC (relative stereo)
result-value: 1.70

molecule: CCOC(=O)/C=C\C(=O)OCC [DIETHYL MALEATE]
result-value: 2.00

molecule: CCCCOC(=O)/C=C\C(=O)OCCCC
result-value: 1.70

molecule: COC(=O)/C=C(/Br)C(=O)OC
result-value: 1.15

molecule: COC(=O)C(Br)C(Br)C(=O)OC (stereo in doubt)
result-value: 1.30

###

tested on: Trichophyton mentagrophytes; test: Antifungal activity against Trichophyton mentagrophytes ATCC 9129 at pH 5.6 after 5 days in presence of 10% beef serum; format: functional; conditions: Trichophyton mentagrophytes, ATCC 9129, 120 h; read-out: MIC
Structures can show the parent of a compound that is named as a salt.
measure: MIC (mg/L)

compound: COC(=O)/C=C(/Br)C(=O)OC
system-tested: Trichophyton mentagrophytes
measure: MIC
units-text: mg/L
comparison-sign: =
result-value: 5
--
compound: COC(=O)/C=C(\Br)C(=O)OC
system-tested: Trichophyton mentagrophytes
measure: MIC
units-text: mg/L
comparison-sign: =
result-value: 3
--
compound: COC(=O)/C=C(\F)C(=O)OC
system-tested: Trichophyton mentagrophytes
measure: MIC
units-text: mg/L
comparison-sign: =
result-value: 4
--
compound: COC(=O)/C=C\C(=O)OC [DIMETHYL MALEATE]
system-tested: Trichophyton mentagrophytes
measure: MIC
units-text: mg/L
comparison-sign: =
result-value: 50
--
compound: COC(=O)[C@H](F)[C@@H](Br)C(=O)OC (relative stereo)
system-tested: Trichophyton mentagrophytes
measure: MIC
units-text: mg/L
comparison-sign: =
result-value: 3
--
compound: CCCOC(=O)/C=C/C(=O)OCCC
system-tested: Trichophyton mentagrophytes
measure: MIC
units-text: mg/L
comparison-sign: =
result-value: 50
--
compound: CCCCOC(=O)[C@@H](F)[C@@H](Br)C(=O)OCCCC (relative stereo)
system-tested: Trichophyton mentagrophytes
measure: MIC
units-text: mg/L
comparison-sign: =
result-value: 20
--
compound: COC(=O)C(Br)CF (configuration not stated)
system-tested: Trichophyton mentagrophytes
measure: MIC
units-text: mg/L
comparison-sign: =
result-value: 100
--
compound: COC(=O)CC(F)C(Br)C(=O)OC (configuration not stated)
system-tested: Trichophyton mentagrophytes
measure: MIC
units-text: mg/L
comparison-sign: =
result-value: 18
--
compound: COC(=O)/C=C(/F)C(=O)OC
system-tested: Trichophyton mentagrophytes
measure: MIC
units-text: mg/L
comparison-sign: =
result-value: 8
--
compound: C[C@@H]1[C@H](O)[C@@H](C)/C=C/C=C/C=C/C=C/C=C/C=C/C=C/[C@H](O[C@@H]2O[C@H](C)[C@@H](O)[C@H](N)[C@@H]2O)C[C@@H]2O[C@](O)(C[C@@H](O)C[C@@H](O)[C@H](O)CC[C@@H](O)C[C@@H](O)CC(=O)O[C@H]1C)C[C@H](O)[C@H]2C(=O)O
system-tested: Trichophyton mentagrophytes
measure: MIC
units-text: mg/L
comparison-sign: <
result-value: 1
--
compound: CCOC(=O)/C=C/C(=O)OCC
system-tested: Trichophyton mentagrophytes
measure: MIC
units-text: mg/L
comparison-sign: =
result-value: 20
--
compound: CCOC(=O)[C@@H](F)[C@@H](Br)C(=O)OCC (relative stereo)
system-tested: Trichophyton mentagrophytes
measure: MIC
units-text: mg/L
comparison-sign: =
result-value: 5
--
compound: CCCCOC(=O)/C=C/C(=O)OCCCC
system-tested: Trichophyton mentagrophytes
measure: MIC
units-text: mg/L
comparison-sign: =
result-value: 60
--
compound: CCCCOC(=O)[C@H](F)[C@@H](Br)C(=O)OCCCC (relative stereo)
system-tested: Trichophyton mentagrophytes
measure: MIC
units-text: mg/L
comparison-sign: =
result-value: 30
--
compound: CCOC(=O)/C=C\C(=O)OCC [DIETHYL MALEATE]
system-tested: Trichophyton mentagrophytes
measure: MIC
units-text: mg/L
comparison-sign: =
result-value: 60
--
compound: CC1/C=C/C=C/C=C/C=C/C=C/C=C/C=C/C(OC2O[C@H](C)[C@@H](O)[C@H](N)[C@@H]2O)CC(O)C(C(=O)O)C(O)CC(=O)CC(O)CC(O)CC(O)CC(=O)CCCC(=O)CC(=O)OC1C(C)CC(C)C(O)CC(=O)c1ccc(N)cc1 (some centres not stated)
system-tested: Trichophyton mentagrophytes
measure: MIC
units-text: mg/L
comparison-sign: <
result-value: 1
--
compound: COC(=O)/C=C/C(=O)OC [DIMETHYL FUMARATE]
system-tested: Trichophyton mentagrophytes
measure: MIC
units-text: mg/L
comparison-sign: =
result-value: 16
--
compound: CCCCOC(=O)/C=C\C(=O)OCCCC
system-tested: Trichophyton mentagrophytes
measure: MIC
units-text: mg/L
comparison-sign: =
result-value: 30
--
compound: CCCOC(=O)/C=C\C(=O)OCCC
system-tested: Trichophyton mentagrophytes
measure: MIC
units-text: mg/L
comparison-sign: =
result-value: 40
--
compound: CCCOC(=O)[C@H](F)[C@@H](Br)C(=O)OCCC (relative stereo)
system-tested: Trichophyton mentagrophytes
measure: MIC
units-text: mg/L
comparison-sign: =
result-value: 12
--
compound: CCCCCOC(=O)/C=C\C(=O)OCCCCC
system-tested: Trichophyton mentagrophytes
measure: MIC
units-text: mg/L
comparison-sign: =
result-value: 50

###

system: Aspergillus niger; assay: Antifungal activity against Aspergillus niger ATCC 1004 at pH 7 after 5 days in absence of 10% beef serum; format: functional; conditions: Aspergillus niger, ATCC 1004, 120 h; read-out: MIC
Recorded MIC, one value per entry.
measure: MIC (µg/mL)

compound: Nc1nc(=O)[nH]cc1F [FLUCYTOSINE]
measure: MIC
comparison-sign: =
result-value: 7

compound: C[C@@H]1[C@H](O)[C@@H](C)/C=C/C=C/C=C/C=C/C=C/C=C/C=C/[C@H](O[C@@H]2O[C@H](C)[C@@H](O)[C@H](N)[C@@H]2O)C[C@@H]2O[C@](O)(C[C@@H](O)C[C@@H](O)[C@H](O)CC[C@@H](O)C[C@@H](O)CC(=O)O[C@H]1C)C[C@H](O)[C@H]2C(=O)O [AMPHOTERICIN B]
measure: MIC
comparison-sign: <
result-value: 1

compound: COC(=O)C(Br)C(Br)C(=O)OC (stereo in doubt)
measure: MIC
comparison-sign: =
result-value: 60

###

tested on: Trichophyton mentagrophytes; test: Antifungal activity against Trichophyton mentagrophytes ATCC 9129 at pH 7 after 5 days in presence of 10% beef serum; type: functional; settings: Trichophyton mentagrophytes, ATCC 9129, 120 h; read-out: MIC
Recorded MIC, one value per entry.

compound: CCOC(=O)/C=C/C(=O)OCC
system-tested: Trichophyton mentagrophytes
MIC (µg/mL): 50

compound: CCCOC(=O)[C@@H](F)[C@@H](Br)C(=O)OCCC (relative stereo)
system-tested: Trichophyton mentagrophytes
MIC (µg/mL): 14

compound: CCCCCOC(=O)/C=C\C(=O)OCCCCC
system-tested: Trichophyton mentagrophytes
MIC (µg/mL): 60

compound: CCCCOC(=O)[C@@H](F)[C@@H](Br)C(=O)OCCCC (relative stereo)
system-tested: Trichophyton mentagrophytes
MIC (µg/mL): 30

compound: COC(=O)CC(F)C(Br)C(=O)OC (stereo unspecified)
system-tested: Trichophyton mentagrophytes
MIC (µg/mL): 40

compound: COC(=O)[C@H](F)[C@@H](Br)C(=O)OC (relative stereo)
system-tested: Trichophyton mentagrophytes
MIC (µg/mL): 6
